Each entry below carries its reported relative viability.
Test system: 201T
run description: relative viability (nuclei count vs DMSO), 5 days (fraction); higher = more cells survive
condition: first compound 6.325 µM
Field format: numeric only.

Known relative viability results, listed for orientation:
1) Cc1csc(=NC2CCCCC2)n1/N=C/c1ccc(O)c(O)c1O [MIM1] + Nc1nc2[nH]cc(CCc3ccc(C(=O)N[C@@H](CCC(=O)O)C(=O)O)cc3)c2c(=O)[nH]1 [Pemetrexed] (partner 0.2 µM)    0.31
2) Cc1csc(=NC2CCCCC2)n1/N=C/c1ccc(O)c(O)c1O [MIM1] + CC(=O)c1c(C)c2cnc(Nc3ccc(N4CCNCC4)cn3)nc2n(C2CCCC2)c1=O [Palbociclib] (partner 0.5 µM)    0.327

Could you tell me which relative viability is on file for Cc1csc(=NC2CCCCC2)n1/N=C/c1ccc(O)c(O)c1O [MIM1] + N=C(N)NC(=N)NCCc1ccccc1 [Phenformin] (partner 250 µM) ?
0.345

# get_value(readout='relative viability', item= Cc1csc(=NC2CCCCC2)n1/N=C/c1ccc(O)c(O)c1O [MIM1] + Cc1nc(Nc2ncc(C(=O)Nc3c(C)cccc3Cl)s2)cc(N2CCN(CCO)CC2)n1 [Dasatinib] (partner 0.075 µM) )
0.422

What value of measured relative viability is listed for Cc1csc(=NC2CCCCC2)n1/N=C/c1ccc(O)c(O)c1O [MIM1] + C[C@@H](Oc1cc(-c2cnn(C3CCNCC3)c2)cnc1N)c1c(Cl)ccc(F)c1Cl [Crizotinib] (partner 1 µM) ?
0.81
